Where do the numbers come from? From PubChem BioAssay (NCI).

test system: SK-MEL-2 melanoma; assay: NCI tumour cell line growth inhibition, 48 h; in the data active = GI50 below about 0.43 µM; inactive = the rest
Classes used: active, inactive

                                   molecule       cat
0  Cc1ccc(S(=O)(=O)NCCNc2nccc(-c3c(-c4ccc(F)cc4)nc4sccn34)n2)cc1  inactive
1  C1C[OH+]CCNCC[OH+]CC[OH+]CCN1.[Cl-].[Pt+4]  inactive
2  CC(C)S(=O)(=O)c1ccccc1Nc1nc(Nc2cccc(NC(=O)CN)c2)ncc1Cl    active
3  CN(CCCNC(=O)Cc1ccc2ccc3cccc4ccc1c2c34)CCCNc1cc(-c2ccc3ccccc3c2)nc2ccccc12  inactive
4  Cc1cc(C2CC(O)C(CO)O2)cc2c(=O)[nH]c(N)nc12 (centres undefined)  inactive
5        CCC(C)(C)c1ccc(OCCCCCCN2CCNCC2)cc1  inactive
6  C[C@]12CC[C@@H]3c4ccc(O)cc4CC[C@H]3[C@@H]1CC[C@@H]2NS(=O)(=O)c1cccc(F)c1  inactive
7  Cc1cc2c(cc1Cl)SC(=Nc1ccc(Cl)cc1)N(S(=O)(=O)c1ccccc1)S2(=O)=O  inactive
8  Cc1cc(N/N=C/c2nc(-c3ccc(Br)cc3)oc2C)c2cc(Br)ccc2n1  inactive
